Target: T1, cynomolgus monkey CD40 on cells (cynomolgus monkey, UniProt G7PG38 21-278)
T1 construct: also called cyCD40; CHO-K1/cyCD40
T1 sequence (G7PG38 entry or part of it limits assumed): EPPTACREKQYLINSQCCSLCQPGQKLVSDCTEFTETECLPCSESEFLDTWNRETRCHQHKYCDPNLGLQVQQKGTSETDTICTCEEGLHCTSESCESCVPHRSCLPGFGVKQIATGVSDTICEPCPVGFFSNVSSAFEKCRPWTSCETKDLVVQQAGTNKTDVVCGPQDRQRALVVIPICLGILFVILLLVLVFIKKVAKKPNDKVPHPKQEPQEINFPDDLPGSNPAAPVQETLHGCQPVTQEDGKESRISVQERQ
Experiment: FACS, CHO-K1/cyCD40 cells
property measured: EC50 (nM)
Just the number please, in nM, no unit attached.

In: Entry PR006506 (antibody, human IgG1, kappa, V domains shown, PR003379 variant L:S93F; human IgG1 L234A, L235A, G237A) VH: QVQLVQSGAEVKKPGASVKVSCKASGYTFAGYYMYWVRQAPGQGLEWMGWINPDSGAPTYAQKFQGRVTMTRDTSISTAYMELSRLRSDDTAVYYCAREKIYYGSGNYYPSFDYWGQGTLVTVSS VL: DIQLTQSPSFLSASVGDRVTITCRASQGISSYLAWYQQKPGKAPKLLIYAASTLQSGVPSRFSGSGSGTEFTLTISSLQPEDFATYYCQQLNFYPWTFGQGTKVEIKR : reported EC50 = ?
Out: 4.5
